TARGET OR TEST SYSTEM: D(2) dopamine receptor (Homo sapiens)
Sequence (P14416 whole entry): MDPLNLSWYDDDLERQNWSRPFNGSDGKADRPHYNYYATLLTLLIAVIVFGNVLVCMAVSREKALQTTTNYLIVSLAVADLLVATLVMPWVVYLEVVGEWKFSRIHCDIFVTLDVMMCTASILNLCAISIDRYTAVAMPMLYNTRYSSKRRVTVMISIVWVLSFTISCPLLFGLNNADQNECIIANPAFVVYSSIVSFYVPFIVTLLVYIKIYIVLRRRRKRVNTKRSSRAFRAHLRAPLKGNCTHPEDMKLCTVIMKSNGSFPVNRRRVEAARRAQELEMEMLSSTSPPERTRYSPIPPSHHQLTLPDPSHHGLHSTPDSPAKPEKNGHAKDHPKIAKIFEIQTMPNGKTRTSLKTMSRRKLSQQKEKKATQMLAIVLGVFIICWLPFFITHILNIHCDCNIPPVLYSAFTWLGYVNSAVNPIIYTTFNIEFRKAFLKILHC
PROTOCOL TEXT: Binding affinity to D2 dopamine receptor (unknown origin) by competition binding assay
Reported Ki values are given for each entry in this list.
# unit: µM | format: bare number

[in] For D(2) dopamine receptor (Homo sapiens), provide Ki of `C=CCN(CC=C)CCc1c[nH]c2ccc(C)cc12` please.
[out] 5.13

[in] Check `C=CCN(CC=C)CCc1c[nH]c2ccc(F)cc12` too.
[out] 2.45

[in] Check `C=CCN(CC=C)CCc1c[nH]c2ccc(Cl)cc12` too.
[out] 1.86

[in] Check `C=CCN(CC=C)CCc1c[nH]c2ccc(Br)cc12` too.
[out] 4.37
